Data origin, for the record: ChEMBL document CHEMBL4024710

- Experimental target: CYP2D6 (Homo sapiens, UniProt P10635)
- Sequence (P10635 whole entry): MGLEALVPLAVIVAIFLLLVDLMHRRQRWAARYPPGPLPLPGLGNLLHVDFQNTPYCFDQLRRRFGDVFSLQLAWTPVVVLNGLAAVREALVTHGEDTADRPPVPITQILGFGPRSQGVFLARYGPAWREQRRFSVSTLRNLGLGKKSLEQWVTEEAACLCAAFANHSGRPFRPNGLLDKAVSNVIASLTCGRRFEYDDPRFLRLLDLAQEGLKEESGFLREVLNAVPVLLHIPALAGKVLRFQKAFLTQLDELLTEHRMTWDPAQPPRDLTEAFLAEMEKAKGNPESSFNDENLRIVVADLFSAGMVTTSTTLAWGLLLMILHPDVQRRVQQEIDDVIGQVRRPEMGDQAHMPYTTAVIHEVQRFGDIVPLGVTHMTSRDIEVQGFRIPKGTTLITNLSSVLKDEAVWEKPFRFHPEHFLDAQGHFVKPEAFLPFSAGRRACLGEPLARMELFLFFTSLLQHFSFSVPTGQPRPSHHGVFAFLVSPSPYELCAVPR
- Measurement protocol: Inhibition of human hepatic CYP2D6 at 1 uM relative to control
- Format: ADME
Measurement label: inhibition at 1 µM (%)
Provide only the numeric value, understood in %.

Let me check: C[C@]12CC[C@H](O)CC1=CC[C@@H]1[C@@H]2CC[C@]2(C)C(c3cccnc3)=CC[C@@H]12 [ABIRATERONE] , system CYP2D6 (Homo sapiens, UniProt P10635), measured inhibition at 1 µM is 10.4

Let me check: Fc1ccc2sc3c(c2c1)CCN(Cc1cccnc1)C3 , system CYP2D6 (Homo sapiens, UniProt P10635), measured inhibition at 1 µM is 37.5

Let me check: Fc1cncc(CN2CCc3c(sc4ccc(F)cc34)C2)c1 , system CYP2D6 (Homo sapiens, UniProt P10635), measured inhibition at 1 µM is 50.8

Let me check: Cc1ccncc1CN1CCc2c(sc3ccc(F)cc23)C1 , system CYP2D6 (Homo sapiens, UniProt P10635), measured inhibition at 1 µM is 12

Let me check: Fc1ccc2sc3c(c2c1)CCN(Cc1c[nH]cn1)C3 , system CYP2D6 (Homo sapiens, UniProt P10635), measured inhibition at 1 µM is 35.7

Let me check: Oc1ccc2sc3c(c2c1)CCN(Cc1cccnc1)C3 , system CYP2D6 (Homo sapiens, UniProt P10635), measured inhibition at 1 µM is 1.3

Let me check: COc1cncc(CN2CCc3c(sc4ccc(F)cc34)C2)c1 , system CYP2D6 (Homo sapiens, UniProt P10635), measured inhibition at 1 µM is 21.7

====

- Experimental target: Steroid 17-alpha-hydroxylase/17,20 lyase (Rattus norvegicus, UniProt P11715)
- Sequence (P11715 whole entry): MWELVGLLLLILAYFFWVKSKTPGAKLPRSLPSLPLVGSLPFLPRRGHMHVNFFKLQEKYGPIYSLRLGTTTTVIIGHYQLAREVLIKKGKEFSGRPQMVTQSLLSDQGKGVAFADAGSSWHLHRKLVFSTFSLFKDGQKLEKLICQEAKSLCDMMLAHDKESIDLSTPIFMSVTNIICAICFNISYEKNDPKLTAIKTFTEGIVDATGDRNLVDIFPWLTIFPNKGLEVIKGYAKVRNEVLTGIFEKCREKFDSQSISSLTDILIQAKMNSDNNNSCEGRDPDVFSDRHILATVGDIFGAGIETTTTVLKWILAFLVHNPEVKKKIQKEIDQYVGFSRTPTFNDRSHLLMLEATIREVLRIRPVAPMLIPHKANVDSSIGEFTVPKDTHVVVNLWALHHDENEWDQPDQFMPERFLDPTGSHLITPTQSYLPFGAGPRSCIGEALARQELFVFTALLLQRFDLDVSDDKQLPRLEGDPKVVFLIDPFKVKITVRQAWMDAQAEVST
Give measured IC50 for each item. Keep answers brief.
Provide only the numeric value, understood in nM.

Measured IC50 of Brc1ccc2sc3c(c2c1)CCN(Cc1cccnc1)C3 : 517

Measured IC50 of c1cncc(CN2CCc3c([nH]c4ccccc34)C2)c1 : 229

Measured IC50 of Cc1ccncc1CN1CCc2c(sc3ccc(F)cc23)C1 : 15.8

Measured IC50 of COc1cncc(CN2CCc3c(sc4ccc(F)cc34)C2)c1 : 33.9

Measured IC50 of Fc1ccc2sc3c(c2c1)CCN(Cc1cccnc1)C3 : 28.1

Measured IC50 of Clc1ccc2sc3c(c2c1)CCN(Cc1cccnc1)C3 : 449

Measured IC50 of CC(C)c1ccncc1CN1CCc2c(sc3ccc(F)cc23)C1 : 535

Measured IC50 of CC1(C)OB(c2ccc3sc4c(c3c2)CCN(Cc2cccnc2)C4)OC1(C)C : 115

====

Give measured IC50 for each item. Keep answers brief.

Let me check: Cc1ccncc1CN1CCc2c(sc3ccc(F)cc23)C1 , system Cytochrome P450 3A4 (Homo sapiens, UniProt P08684), measured IC50 is 8.56 µM

Let me check: Oc1ccc2sc3c(c2c1)CCN(Cc1cccnc1)C3 , system Cytochrome P450 3A4 (Homo sapiens, UniProt P08684), measured IC50 is 5.28 µM

Let me check: Fc1cncc(CN2CCc3c(sc4ccc(F)cc34)C2)c1 , system Cytochrome P450 3A4 (Homo sapiens, UniProt P08684), measured IC50 is 9.03 µM

====

Give measured inhibition at 1 µM for each item. Keep answers brief.
- Experimental target: CYP2C19 (Homo sapiens, UniProt P33261)
- Sequence (P33261 whole entry): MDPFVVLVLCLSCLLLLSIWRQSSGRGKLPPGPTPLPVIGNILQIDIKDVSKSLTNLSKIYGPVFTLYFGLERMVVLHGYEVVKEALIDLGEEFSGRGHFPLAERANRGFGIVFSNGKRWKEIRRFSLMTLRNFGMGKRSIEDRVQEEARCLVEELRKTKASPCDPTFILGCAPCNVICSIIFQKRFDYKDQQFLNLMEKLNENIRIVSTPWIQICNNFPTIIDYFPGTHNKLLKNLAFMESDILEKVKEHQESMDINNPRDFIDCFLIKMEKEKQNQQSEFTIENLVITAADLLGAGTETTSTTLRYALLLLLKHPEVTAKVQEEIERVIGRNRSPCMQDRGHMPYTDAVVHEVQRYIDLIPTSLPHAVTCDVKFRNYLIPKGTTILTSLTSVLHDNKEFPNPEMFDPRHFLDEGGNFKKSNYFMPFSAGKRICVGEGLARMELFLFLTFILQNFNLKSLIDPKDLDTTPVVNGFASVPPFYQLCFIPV
- Measurement protocol: Inhibition of human hepatic CYP2C19 at 1 uM relative to control
- Type: ADME
Provide only the numeric value, understood in %.

Measured inhibition at 1 µM of Cc1ccncc1CN1CCc2c(sc3ccc(F)cc23)C1 : 11.7

Measured inhibition at 1 µM of Oc1ccc2sc3c(c2c1)CCN(Cc1cccnc1)C3 : 7.9

Measured inhibition at 1 µM of Fc1ccc2sc3c(c2c1)CCN(Cc1cccnc1)C3 : 47.3

Measured inhibition at 1 µM of COc1cncc(CN2CCc3c(sc4ccc(F)cc34)C2)c1 : 0

Measured inhibition at 1 µM of C[C@]12CC[C@H](O)CC1=CC[C@@H]1[C@@H]2CC[C@]2(C)C(c3cccnc3)=CC[C@@H]12 : 39.6

Measured inhibition at 1 µM of Fc1ccc2sc3c(c2c1)CCN(Cc1c[nH]cn1)C3 : 91.2

Measured inhibition at 1 µM of Fc1cncc(CN2CCc3c(sc4ccc(F)cc34)C2)c1 : 5.3

====

- Experimental target: CYP1A2 (Homo sapiens)
- Sequence (P05177 whole entry): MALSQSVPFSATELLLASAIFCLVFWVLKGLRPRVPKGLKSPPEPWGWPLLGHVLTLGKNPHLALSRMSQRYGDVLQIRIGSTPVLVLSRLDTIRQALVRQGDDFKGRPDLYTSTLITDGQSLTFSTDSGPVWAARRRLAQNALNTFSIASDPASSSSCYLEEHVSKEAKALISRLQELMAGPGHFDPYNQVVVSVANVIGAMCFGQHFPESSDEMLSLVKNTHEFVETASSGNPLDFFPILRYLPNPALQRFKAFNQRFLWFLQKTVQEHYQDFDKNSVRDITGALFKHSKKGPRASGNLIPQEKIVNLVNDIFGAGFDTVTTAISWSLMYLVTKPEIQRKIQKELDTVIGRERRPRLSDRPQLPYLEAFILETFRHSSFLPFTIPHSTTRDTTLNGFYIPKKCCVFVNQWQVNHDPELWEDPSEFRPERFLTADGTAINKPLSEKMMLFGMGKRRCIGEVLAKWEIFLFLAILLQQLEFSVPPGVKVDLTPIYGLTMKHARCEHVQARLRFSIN
- Measurement protocol: Inhibition of human hepatic CYP1A2 at 1 uM relative to control
- Type: ADME
Give measured inhibition at 1 µM for each item. Keep answers brief.
Quick note: unit goes after the number.

Measured inhibition at 1 µM of Fc1ccc2sc3c(c2c1)CCN(Cc1cccnc1)C3 : 20.6%

Measured inhibition at 1 µM of C[C@]12CC[C@H](O)CC1=CC[C@@H]1[C@@H]2CC[C@]2(C)C(c3cccnc3)=CC[C@@H]12 : 34%

Measured inhibition at 1 µM of COc1cncc(CN2CCc3c(sc4ccc(F)cc34)C2)c1 : 8.7%

Measured inhibition at 1 µM of Fc1cncc(CN2CCc3c(sc4ccc(F)cc34)C2)c1 : 10.6%

Measured inhibition at 1 µM of Cc1ccncc1CN1CCc2c(sc3ccc(F)cc23)C1 : 16.3%

Measured inhibition at 1 µM of Oc1ccc2sc3c(c2c1)CCN(Cc1cccnc1)C3 : 25.4%

Measured inhibition at 1 µM of Fc1ccc2sc3c(c2c1)CCN(Cc1c[nH]cn1)C3 : 87.9%

====

- Experimental target: CYP1A2 (Homo sapiens, UniProt P05177)
- Measurement protocol: Inhibition of human hepatic CYP1A2 at 10 uM relative to control
- Type: ADME
Give measured inhibition at 10 µM for each item. Keep answers brief.
Provide only the numeric value, understood in %.

Measured inhibition at 10 µM of Oc1ccc2sc3c(c2c1)CCN(Cc1cccnc1)C3 : 71.2

Measured inhibition at 10 µM of COc1cncc(CN2CCc3c(sc4ccc(F)cc34)C2)c1 : 61.2

Measured inhibition at 10 µM of C[C@]12CC[C@H](O)CC1=CC[C@@H]1[C@@H]2CC[C@]2(C)C(c3cccnc3)=CC[C@@H]12 [ABIRATERONE] : 92.5

Measured inhibition at 10 µM of Fc1ccc2sc3c(c2c1)CCN(Cc1c[nH]cn1)C3 : 99.4

Measured inhibition at 10 µM of Fc1cncc(CN2CCc3c(sc4ccc(F)cc34)C2)c1 : 69.5

Measured inhibition at 10 µM of Cc1ccncc1CN1CCc2c(sc3ccc(F)cc23)C1 : 62.2

Measured inhibition at 10 µM of Fc1ccc2sc3c(c2c1)CCN(Cc1cccnc1)C3 : 71.6

====

- Experimental target: CYP2D6 (Homo sapiens, UniProt P10635)
- Measurement protocol: Inhibition of human hepatic CYP2D6 at 10 uM relative to control
- Assay type: ADME
Give measured inhibition at 10 µM for each item. Keep answers brief.
Provide only the numeric value, understood in %.

Measured inhibition at 10 µM of C[C@]12CC[C@H](O)CC1=CC[C@@H]1[C@@H]2CC[C@]2(C)C(c3cccnc3)=CC[C@@H]12 : 78.5

Measured inhibition at 10 µM of Fc1ccc2sc3c(c2c1)CCN(Cc1c[nH]cn1)C3 : 49.6

Measured inhibition at 10 µM of Oc1ccc2sc3c(c2c1)CCN(Cc1cccnc1)C3 : 18.9

Measured inhibition at 10 µM of COc1cncc(CN2CCc3c(sc4ccc(F)cc34)C2)c1 : 76.1

Measured inhibition at 10 µM of Cc1ccncc1CN1CCc2c(sc3ccc(F)cc23)C1 : 56.8

Measured inhibition at 10 µM of Fc1cncc(CN2CCc3c(sc4ccc(F)cc34)C2)c1 : 62.5

Measured inhibition at 10 µM of Fc1ccc2sc3c(c2c1)CCN(Cc1cccnc1)C3 : 83.7
